METHOD_SUMMARY: physchem
RUN_CONDITIONS: ACN, 37 °C, organic solvent or mixture, thermodynamic from solid
PARAMETER_MEASURED: solubility at 1 day (mg/mL)
Provide the reading as a plain figure in mg/mL.

Identify measured solubility at 1 day associated with CC(C)OC(=O)[C@H](C)N[P@](=O)(CO[C@H](C)Cn1cnc2c(N)ncnc21)Oc1ccccc1 [TAF Free base]
15

###

METHOD_SUMMARY: physchem
RUN_CONDITIONS: PC, 37 °C, organic solvent or mixture, thermodynamic from solid
PARAMETER_MEASURED: solubility at 5 days (mg/mL)
Provide the reading as a plain figure in mg/mL.

Identify measured solubility at 5 days associated with CC(C)OC(=O)[C@H](C)N[P@](=O)(CO[C@H](C)Cn1cnc2c(N)ncnc21)Oc1ccccc1 [TAF Free base]
26

###

METHOD_SUMMARY: physchem
RUN_CONDITIONS: DMSO, 37 °C, organic solvent or mixture, thermodynamic from solid
PARAMETER_MEASURED: solubility at 5 days
Answer by giving the amount and then stating its unit.

Identify measured solubility at 5 days associated with CC(C)OC(=O)[C@H](C)N[P@](=O)(CO[C@H](C)Cn1cnc2c(N)ncnc21)Oc1ccccc1 [TAF Free base]
182 mg/mL

###

METHOD_SUMMARY: physchem
RUN_CONDITIONS: NMP, 37 °C, organic solvent or mixture, thermodynamic from solid
PARAMETER_MEASURED: solubility at 1 day (mg/mL)
Provide the reading as a plain figure in mg/mL.

Identify measured solubility at 1 day associated with CC(C)OC(=O)[C@H](C)N[P@](=O)(CO[C@H](C)Cn1cnc2c(N)ncnc21)Oc1ccccc1 [TAF Free base]
96

###

METHOD_SUMMARY: physchem
RUN_CONDITIONS: DCM, 37 °C, organic solvent or mixture, thermodynamic from solid
PARAMETER_MEASURED: solubility at 1 day (mg/mL)
Provide the reading as a plain figure in mg/mL.

Identify measured solubility at 1 day associated with CC(C)OC(=O)[C@H](C)N[P@](=O)(CO[C@H](C)Cn1cnc2c(N)ncnc21)Oc1ccccc1 [TAF Free base]
146

###

METHOD_SUMMARY: physchem
RUN_CONDITIONS: ACN, 37 °C, organic solvent or mixture, thermodynamic from solid
PARAMETER_MEASURED: solubility at 5 days (mg/mL)
Provide the reading as a plain figure in mg/mL.

Identify measured solubility at 5 days associated with CC(C)OC(=O)[C@H](C)N[P@](=O)(CO[C@H](C)Cn1cnc2c(N)ncnc21)Oc1ccccc1 [TAF Free base]
13

###

METHOD_SUMMARY: physchem
RUN_CONDITIONS: NMP, 37 °C, organic solvent or mixture, thermodynamic from solid
PARAMETER_MEASURED: solubility at 5 days (mg/mL)
Provide the reading as a plain figure in mg/mL.

Identify measured solubility at 5 days associated with CC(C)OC(=O)[C@H](C)N[P@](=O)(CO[C@H](C)Cn1cnc2c(N)ncnc21)Oc1ccccc1 [TAF Free base]
161
